measurement.description: HoxA9-arrested leukemia cell differentiation promoters – flow cytometry, MLPCN library, primary screen (AID 624256);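 note: cells exposed to compound for four days before flow analysis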
applied.conditions: ER-HoxA9 myeloid progenitors, lysozyme-GFP differentiation, at 10 µM; measured here: differentiation confirmed by MAC1 staining, stronger effect = higher value
The campaign covered roughly 360,000 compounds. About 3,700 (1%) were called active. Roughly 2% stayed inconclusive and do not appear here. The list comes from a sample in which actives are over-represented; it also holds close analogues and randomly drawn compounds.
Decision: GFP+ MAC1+ double positive >= 1% yields true (1), all other cases yield false (0).

IN: Hi team, for CC1CN(Cc2ccccc2)C(=S)NC1=O (stereo unspecified) , is the recorded GFP+ MAC1+ double positive at or above 1%?
OUT: false (0)

IN: Determine whether measured GFP+ MAC1+ double positive meets or exceeds 1% for CC1CCCC(NC(=O)c2cc(S(=O)(=O)N3CCCCC3)ccc2Cl)C1C (stereo unspecified)
OUT: true (1)

IN: Could you tell me if the measured GFP+ MAC1+ double positive of Cc1ccc(C(=O)NNC(=O)c2ccncc2)cc1S(=O)(=O)N1CCCCC1 reaches 1% or more?
OUT: false (0)

IN: Determine whether this molecule has GFP+ MAC1+ double positive no lower than 1%: CC(=O)Nc1cc(-c2cccc(CO)c2)cn2c(-c3cccc(C(F)(F)F)c3)cnc12
OUT: false (0)

IN: Is reported GFP+ MAC1+ double positive greater than or equal to 1% here: Nc1c(C(=O)c2cccs2)sc2nsc(SCCN3CCCCC3)c12
OUT: true (1)

IN: Quick check: does Cc1ccc(C(=O)NC2CCCC(C)C2C)cc1S(=O)(=O)N1CCCCC1 (stereo unspecified) have GFP+ MAC1+ double positive greater than or equal to 1%?
OUT: true (1)

IN: Threshold query (GFP+ MAC1+ double positive >= 1%) on COc1cccc2sc3cc(NCC[C@@H]4CCCN4C)ccc3c(=O)c12
OUT: true (1)

IN: Record Cc1cc2oc3ccc(NCCC4CCCN4C)cc3c(=O)c2cc1C (stereo unspecified) ; criterion: GFP+ MAC1+ double positive no lower than 1%. Met?
OUT: true (1)

IN: Please indicate if the recorded GFP+ MAC1+ double positive for O=S1(=O)CC(N2CCC(Cc3ccccc3)CC2)CN1Cc1ccccc1 (stereo unspecified) meets or exceeds 1%.
OUT: true (1)

IN: hey, is GFP+ MAC1+ double positive for this one >= 1%? COCCNC(=O)C1C(=O)Nc2ccccc2C(=O)N1c1ccc2c(c1)OCCO2 (stereo unspecified)
OUT: true (1)

IN: Threshold query (GFP+ MAC1+ double positive >= 1%) on O=C1C=CN2CCCC2CC1 (stereo unspecified)
OUT: true (1)

###

Please respond with reported GFP+ MAC1+ double positive for every item in the list.
measurement.description: HoxA9-arrested leukemia cell differentiation promoters – flow cytometry, MLPCN library, primary screen (AID 624256);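 note: cells exposed to compound for four days before flow analysis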
applied.conditions: ER-HoxA9 myeloid progenitors, lysozyme-GFP differentiation, at 10 µM; measured here: differentiation confirmed by MAC1 staining, stronger effect = higher value
Screen size: about 360,000 compounds; about 3,700 (1%) were called active. Not shown: some 2% with an inconclusive outcome. The sample as a whole holds a higher share of actives than the screen did.

IN: Could you please provide reported GFP+ MAC1+ double positive for CCC(CC)C(C(=O)NC1CCCC1)N1CCN(c2cc(C)nc3ccccc23)CC1 (stereo not given) ? Thanks!
OUT: 1.2%

IN: Provide one value: measured GFP+ MAC1+ double positive of COC(=O)c1ccc(-c2noc(CN(Cc3ccccn3)CC3CCCO3)n2)cc1 (stereo not given)
OUT: 0.3%

IN: In one line, give reported GFP+ MAC1+ double positive of the entry CC1=C(C(=O)N(C(C)C)C(C)C)CC(CC(=O)NCC2CCCCC2)C(=O)N1Cc1ccccc1 (stereo not given) .
OUT: 0.3%

IN: Supply measured GFP+ MAC1+ double positive of CCc1ccc(CN(C)C(=O)CCc2nnc(-c3ccc(-c4ccccc4)cc3)o2)nc1 in your reply.
OUT: 0.1%

IN: Dear colleague, please send me the reported GFP+ MAC1+ double positive for COCCCn1cc(CN2CC(N(C)C)CS2(=O)=O)nn1 (stereo not given) when you can.
OUT: 0.8%

IN: Give the measured GFP+ MAC1+ double positive for Nc1ccccc1SC(C[N+](=O)[O-])c1ccccc1 (stereo not given)
OUT: 1.1%

IN: Answer with reported GFP+ MAC1+ double positive of COc1cc(N=Cc2c(O)c3ccccc3oc2=O)c(OC)cc1Cl
OUT: 12%

IN: Determine from records and report GFP+ MAC1+ double positive for O=C(Cc1nc2ccccc2[nH]c1=O)c1ccc(Cl)cc1
OUT: 72.3%

IN: Output measured GFP+ MAC1+ double positive for this item: O=C(NCc1ccccn1)[C@@H]1CCCN1C(=O)[C@@H]1CCCN1C(=O)c1ccccc1
OUT: 1.4%

IN: # return recorded GFP+ MAC1+ double positive for input COC(=O)c1sc(N2CCN(Cc3ccccc3)CC2)nc1N
OUT: 0.5%

IN: Input O=c1[nH][nH]c2c1[C@H](c1ccc(Cl)cc1)O[C@H](CCc1ccccc1)C2 , output reported GFP+ MAC1+ double positive.
OUT: 0.6%

IN: Please give measured GFP+ MAC1+ double positive of the following entry: COc1ccccc1CNC(=O)c1cc(=O)c2ccccc2o1
OUT: 1%

IN: Please report GFP+ MAC1+ double positive for the following molecule: CCCNC(=O)c1cc2c(c(-c3cccc(-c4ccc(C#N)cc4)c3)n1)[C@@H](CCO)N(C(=O)CC)C2
OUT: 0.7%

IN: Consider the molecule Cc1ccc(C2=CSC3=NS(=O)(=O)CCN23)cc1C and give its recorded GFP+ MAC1+ double positive.
OUT: 4.9%

IN: Please give the documented GFP+ MAC1+ double positive of CCCCCCc1cc2cc(-c3nnc(-c4ccccc4)o3)c(=O)oc2cc1O
OUT: 56.6%

IN: Tell me GFP+ MAC1+ double positive reported for Cn1c(CCC(=O)OCC(=O)NCc2ccccc2Cl)nc(=O)c2ccccc21
OUT: 34.4%

IN: Check the records and state GFP+ MAC1+ double positive for CCOC(=O)[C@]12CCC=C1N(Cc1ccccc1)C(=O)[C@H](CC(=O)N1CCCC1)C2
OUT: 0.9%

IN: Using the record for CCCNC(=O)C[C@@H]1CC[C@@H]2[C@H](COC[C@H](O)CN2C(=O)c2cc(Cl)cc(Cl)c2)O1 , state its measured GFP+ MAC1+ double positive.
OUT: 0.9%

IN: Give me measured GFP+ MAC1+ double positive, please, for this molecule: CCCCCCCCN1C(=O)[C@H](CC(=O)NCC23CC4CC(CC(C4)C2)C3)C[C@@]2(C(=O)OC)CCCCC=C12
OUT: 1%

IN: Report GFP+ MAC1+ double positive for COc1ccc(S(=O)(=O)N2CCOCC2)cc1C(=O)Nc1nc2ccccc2s1
OUT: 27.7%

IN: Give reported GFP+ MAC1+ double positive value for CN1OC[C@@H]2CN(C(=O)c3cccnc3)[C@H](c3ccc(N4CCCCC4)cc3)C[C@@H]21
OUT: 1.2%

IN: In one line, give reported GFP+ MAC1+ double positive of the entry CCc1nc2c(OCc3ccc(Cl)cc3Cl)cccn2c1N(C)C(=O)C(C)C .
OUT: 1.8%

IN: Quick one: give measured GFP+ MAC1+ double positive for CC1Cc2ccccc2N1S(=O)(=O)c1cccc(C(=O)NCC(c2ccco2)N2CCCC2)c1 (stereo not given)
OUT: 1.4%

IN: Check the records and state GFP+ MAC1+ double positive for Clc1cccc(Cc2c(-c3cccc(Cl)c3)nc3ccc(Cl)cn23)c1
OUT: 0.4%

IN: Consider the molecule O=C(Cc1ccc(Cl)cc1)c1ccccc1 . State its measured GFP+ MAC1+ double positive.
OUT: 0.7%

IN: Give the reported value of GFP+ MAC1+ double positive for this record: CC(C)CC(COCc1ccc(Cl)cc1)N1CCN(C(=O)c2ccc(C(F)(F)F)cc2)CCC1=O (stereo not given)
OUT: 5.1%

IN: Look up and report measured GFP+ MAC1+ double positive for this entry: C[C@H](NC(=O)[C@@H]1CCCN1C(=O)[C@@H]1CCCN1C(=O)c1ccccc1)c1ccccc1
OUT: 0.7%

IN: Supply GFP+ MAC1+ double positive value. Item: COC(=O)CCCCC1=CCC2C(=O)C=C(O)C2C1 (stereo not given)
OUT: 1.6%

IN: Indicate its recorded GFP+ MAC1+ double positive; the molecule in question is CC(OC(=O)CCc1nc(=O)c2ccccc2n1C)C(=O)NCc1ccc2c(c1)OCO2 (stereo not given)
OUT: 0.9%

IN: Provide only the value of recorded GFP+ MAC1+ double positive for O=C(NC1CCCCC1)C(c1cc2ccccc2o1)n1c(=O)c(-c2ccco2)nc2ccccc21 (stereo not given)
OUT: 5.6%

IN: Answer with the recorded GFP+ MAC1+ double positive of O=c1c(-c2ccc(Cl)cc2)[n+]([O-])c2ccccc2n1OCc1nc2ccccc2[nH]1 only.
OUT: 0.7%

IN: Return value of GFP+ MAC1+ double positive for input COc1ccc(C(O)C(O)(C(=O)OC(C)C)c2ccc(C)cc2)cc1 (stereo not given) , no commentary.
OUT: 2.5%

IN: Consider the molecule O=S1(=O)CCN2C(=N1)SC1=C2CCN(Cc2ccccc2)C1 and give its recorded GFP+ MAC1+ double positive.
OUT: 0.5%

IN: Fill in reported GFP+ MAC1+ double positive for this entry: CN(Cc1ccccn1)Cc1nc(-c2ccc(Cl)cc2)no1
OUT: 0.5%

IN: Please indicate GFP+ MAC1+ double positive recorded for COc1c(C)cc(C(O)c2ncc(-c3cccc(C(F)(F)F)c3)[nH]2)cc1C (stereo not given)
OUT: 1.2%

IN: Please look at this molecule and report its GFP+ MAC1+ double positive: COc1ccc(S(=O)(=O)N2CCOCC2)cc1C(=O)NC1CCCCC1
OUT: 0.6%

IN: Return value of GFP+ MAC1+ double positive for input CCS(=O)(=O)c1cc([N+](=O)[O-])c(Sc2ccccc2N)s1 , no commentary.
OUT: 1.1%

IN: Provide one value: measured GFP+ MAC1+ double positive of CC(C)C[C@H]1CNC(=S)N1C[C@H]1CCCN1C[C@H](Cc1ccc(O)cc1)N1C[C@H](Cc2ccc(O)cc2)N(CC2CCCCC2)C1=S
OUT: 1.3%

IN: Input COc1ccc(OC)c(CN2C(=O)CCC2(C)c2nnnn2Cc2ccccc2)c1 (stereo not given) , output reported GFP+ MAC1+ double positive.
OUT: 0.7%

IN: Give reported GFP+ MAC1+ double positive value for CC(C)C[C@@H](COCc1ccc(Cl)cc1)N1CCN(C(=O)c2ccc(Cl)cc2Cl)CCC1=O
OUT: 0.8%
